Measured values drawn from the SangsterLogP compilation for this set.

// reported logP for each item listed
MEASUREMENT_KIND: logP

# SMILES_RECORD, OBSERVED_RESULT
rows = [
    ("Cc1cc(Cl)cc(C)c1N=C1NCCN1", 2.5),
    ("Clc1ccc(Cl)c(N=C2NCCN2)c1", 2.04),
    ("Fc1cccc(Cl)c1N=C1NCCN1", 1.45),
    ("Clc1cccc(Br)c1N=C1NCCN1", 1.73),
    ("Clc1cccc(Cl)c1N=C1NCCN1", 1.59),
]
